Listed compounds paired with reported phenotypically active
tested on: A549-ACTB-RAB5A; experiment: phenotypically active (imaging signature differs from DMSO and reproducible) at any of 0.3-9 uM (binary (1 = active, 0 = inactive)); higher = active; details: treatment time: 24 h
Where a name gives a salt, the structure may show the parent alone.
Note: the reply should be a number with no unit written.

1) CC[C@H](CO)Nc1nc(NCc2ccc(-c3ccccn3)cc2)c2ncn(C(C)C)c2n1 = 1

Briefly, phenotypically active measured for c1ccc2c(c1)CN1CCCC1=N2 [Desoxypeganine Hydrochloride] : 0

Briefly, phenotypically active measured for NS(=O)(=O)c1cc(Cl)c(Cl)c(S(N)(=O)=O)c1 [diclofenamide] : 0

Briefly, phenotypically active measured for COc1ccc2c(c1OC)C(=O)O[C@@H]2[C@H]1c2c(cc3c(c2OC)OCO3)CCN1C [Noscapine hydrochloride] : 0

----------
tested on: A549-CANX-COX4; test: phenotypically active (imaging signature differs from DMSO and reproducible) at any of 0.3-9 uM (binary (1 = active, 0 = inactive)); higher = active; settings: treatment time: 24 h
Structures can show the parent of a compound that is named as a salt.
One label from this list, please: Y = active, N = inactive

1. Cc1c(OCC(F)(F)F)ccnc1CS(=O)c1nc2ccccc2[nH]1 (stereo not given) = N
2. O=C(CCCCCN1C(=O)c2cccc3cccc(c23)C1=O)NO = Y
3. C[C@@H](Oc1cc(-c2cnn(C3CCNCC3)c2)cnc1N)c1c(Cl)ccc(F)c1Cl = Y
4. CNCCCC12CCC(c3ccccc31)c1ccccc12 = N
5. O=C1Nc2ccc(F)cc2C1=C1Nc2ccccc2C1=NO = Y
6. c1ccc2c(c1)CN1CCCC1=N2 [Desoxypeganine Hydrochloride] = N
7. Cc1nc(NC(=O)N2CCC[C@H]2C(N)=O)sc1-c1csc(C(C)(C)C)n1 = N
8. O=C(O)[C@]1(O)C[C@H](O)[C@@H](O)[C@@H](O)C1 = N

Lookup: Per the assay record, what outcome was assigned to "CN(C)/N=N/c1[nH]cnc1C(N)=O" ?
Found: N

Lookup: Per the assay record, what outcome was assigned to CCCCCC1CC1CC1CC1CCCCCCCC(=O)O (stereo not given) ?
Found: N

----------
test system: WPMY1-CANX-COX4; assay: phenotypically active (imaging signature differs from DMSO and reproducible) at any of 0.3-9 uM (binary (1 = active, 0 = inactive)); higher = active; conditions: treatment time: 24 h
Structures can show the parent of a compound that is named as a salt.
Listed compounds paired with reported phenotypically active
Note: the reply should be a number with no unit written.

Answered cases to consult:
1. CCN1CCN(C(c2cccnc2)c2cc(Cl)c3cccnc3c2O)CC1 (centres undefined) = 1
2. COc1cc(-c2cn(C)c(=O)c3cnccc23)c(OC)cc1CN(C)C = 0

Briefly, phenotypically active measured for "O=C(/C=C/c1ccc2ccccc2n1)c1ccncc1" : 0

Briefly, phenotypically active measured for "O=c1c(O)c(-c2ccc(O)c(O)c2)oc2cc(O)cc(O)c12" : 0

Briefly, phenotypically active measured for "COc1cc(C(C)=O)ccc1OCCCN1CCC(c2noc3cc(F)ccc23)CC1" : 0

Briefly, phenotypically active measured for "Cc1ccnn1-c1ccc(C(=O)N2CCN(S(=O)(=O)c3ccc(Cl)c(C(F)(F)F)c3)CC2)cc1" : 0

Briefly, phenotypically active measured for O=C1NC(=O)[C@@H](c2cn3c4c(cccc24)CCC3)[C@@H]1c1c[nH]c2ccccc12 [tivantinib] : 1

Briefly, phenotypically active measured for CC(C)c1cnn2c(NCc3ccccc3)cc(NCCCCCCN)nc12 [BS 181 dihydrochloride] : 1

Briefly, phenotypically active measured for "C[C@]12CC[C@@H]3c4ccc(OS(=O)(=O)O)cc4CC[C@H]3[C@@H]1CCC2=O" : 0

Entry source: the supplement of paper PMC7411054
